- assay-summary: Solubility data of compounds in water over the pH range
- Type: physicochemical
- test-conditions: pH 6.29
Where a SMILES comes first, the peptide text is derived from it. Bridges are numbered along the chain shown (N, C = ends). [ ]: non-standard residue; d: D form. The star is where a group is joined. C16 diacid = O=C(O)CCCCCCCCCCCCCCC(=O)*; Hyp = O=C(O)[C@@H]1C[C@@H](O)CN1; NTA = O=C(O)CN(CC(=O)O)CC(=O)*; Nle = CCCC[C@H](N)C(=O)O; AEEA = NCCOCCOCC(=O)O
metric: solubility at 3 days (µM)

compound="CCCC[C@H](NC(=O)[C@H](CCCCNC(=O)CN(CC(=O)O)CC(=O)O)NC(=O)[C@H](CO)NC(=O)[C@H](CCC(N)=O)NC(=O)[C@H](CO)NC(=O)CNC(=O)COCCOCCNC(=O)CCCCCCCCCCCCCCC(=O)O)C(=O)N[C@H]1CCC(=O)NCCCC[C@@H](C(N)=O)NC(=O)[C@H](Cc2c[nH]c3ccccc23)NC(=O)[C@H](CCCNC(=N)N)NC(=O)[C@@H](Cc2ccccc2)NC(=O)[C@@H]2C[C@@H](O)CN2C1=O [Example 21] ({C16 diacid-AEEA}-GSQSK(NTA)[Nle]E[Hyp][dF]RWK-NH2; lactam 7-12)" recorded_value=106
